assay.target: human MDM2 protein (amino acids 2-188) (Homo sapiens (Human), UniProt Q00987)
Sequence (Q00987 2-188): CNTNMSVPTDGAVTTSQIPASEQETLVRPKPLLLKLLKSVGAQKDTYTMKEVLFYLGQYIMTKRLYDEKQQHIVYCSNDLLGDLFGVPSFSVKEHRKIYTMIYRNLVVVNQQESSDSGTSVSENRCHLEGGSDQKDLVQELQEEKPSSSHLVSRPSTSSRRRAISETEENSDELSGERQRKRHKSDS
assay.summary: TR-FRET assay, p53-MDM2 Assay 2 (modified)
Format: binding
condition.set: TR-FRET; 0.1 nM MDM2, 0.1 nM Europium labeled streptavidin, Tecan genios Pro reader; read-out: IC50 p53-MDM2 Assay 2
Under this convention, 1.0 denotes IC50 strictly below 400 pM and 0.0 denotes IC50 at or above 400 pM.

molecule="COc1ncc(-c2cc3c(n2C(C)C)C(c2ccc(Cl)cn2)N(c2cc(Cl)ccc2C)C3=O)c(OC)n1 (stereo not drawn)" label_class=0.0
molecule="COc1nc(N(C)C)ncc1-c1cc2c(n1C(C)C)C(c1ccc(C#N)cc1)N(c1cc(Cl)c[nH]c1=O)C2=O (stereo not drawn)" label_class=1.0
molecule=COc1nc(N(C)C)ncc1-c1cc2c(n1C(C)C)[C@@H](c1ccc(C#N)cc1)N(C1CCOCC1)C2=O label_class=0.0
molecule="COc1ncc(-c2cc3c(n2C(C)C)C(c2ccc(C#N)cc2)N(c2cc(C)nn2C)C3=O)c(OC)n1 (stereo not drawn)" label_class=0.0

Criterion: IC50 strictly below 400 pM. Is it met by CNc1ncc(-c2cc3c(n2C(C)C)C(c2ccc(C#N)cc2)N(c2cc(Cl)c(=O)n(C)c2)C3=O)c(OC)n1 (stereo not drawn) ?
1.0

Criterion: IC50 strictly below 400 pM. Is it met by COc1ncc(-c2cc3c(n2C(C)C)C(c2ccc(Cl)cc2)N(c2cc(C)nn2C)C3=O)c(OC)n1 (stereo not drawn) ?
0.0

Criterion: IC50 strictly below 400 pM. Is it met by COc1ncc(-c2cc3c(n2C(C)C)C(c2ccc(Cl)cc2)N(c2cc(Cl)ccc2C)C3=O)c(OC)n1 (stereo not drawn) ?
1.0

Criterion: IC50 strictly below 400 pM. Is it met by COc1ccccc1-c1cc2c(n1C(C)C)C(c1ccc(Cl)cc1)N(C1CCOCC1)C2=O (stereo not drawn) ?
0.0

Criterion: IC50 strictly below 400 pM. Is it met by COc1ncc(-c2cc3c(n2C(C)C)C(c2ccc(C#N)c(F)c2)N(c2cc(Cl)c[nH]c2=O)C3=O)c(OC)n1 (stereo not drawn) ?
1.0

Criterion: IC50 strictly below 400 pM. Is it met by COc1ncc(-c2cc3c(n2C(C)C)C(c2ccc(Cl)cc2)N(c2cc(Cl)c(=O)n(C)c2)C3=O)c(OC)n1 (stereo not drawn) ?
1.0

Criterion: IC50 strictly below 400 pM. Is it met by COc1ncc(-c2cc3c(n2C(C)C)C(c2ccc(Cl)c(F)c2)N(c2cc(Cl)c[nH]c2=O)C3=O)c(OC)n1 (stereo not drawn) ?
1.0

Criterion: IC50 strictly below 400 pM. Is it met by COc1ccc(CC(=O)O)cc1-c1cc2c(n1C(C)C)[C@@H](c1ccc(Cl)cc1)N(c1cc(Cl)ccc1C)C2=O ?
0.0

Criterion: IC50 strictly below 400 pM. Is it met by COc1nc(N)ncc1-c1cc2c(n1C(C)C)C(c1ccc(Cl)cc1)N([C@H]1CC[C@H](O)CC1)C2=O (stereo partly drawn) ?
0.0

Criterion: IC50 strictly below 400 pM. Is it met by CNc1ncc(-c2cc3c(n2C(C)C)C(c2ccc(Cl)cc2)N(c2cc(Cl)c[nH]c2=O)C3=O)c(OC)n1 (stereo not drawn) ?
1.0
